Biological target: Phosphodiesterase 4 (Homo sapiens, UniProt P27815+Q08499+Q07343+Q08493)
Experiment: Inhibitory concentration against phosphodiesterase 4 (PDE4) in cytosol of human neutrophils
Format: protein assay
Exercise: for every item that follows, state its recorded Log IC50.
API note: the answer field is a bare number with no unit suffix.

Ask: State the recorded Log IC50 for this entry: COc1ccc(C2=NN(CCCCCC(=O)[O-])C(=O)C3CCCCC23)cc1OC.[Na+] (configuration not stated)
Reply: -7.5

Ask: State the recorded Log IC50 for this entry: COc1ccc(C2=NN(Cc3ccc(O)cc3)C(=O)C3CCCCC23)cc1OC (configuration not stated)
Reply: -8

Ask: State the recorded Log IC50 for this entry: COc1ccc(C2=NN(Cc3ccccc3O)C(=O)C3CCCCC23)cc1OC (configuration not stated)
Reply: -8.1

Ask: State the recorded Log IC50 for this entry: COc1ccc(C2=NN(CCCCn3ccnc3)C(=O)C3CCCCC23)cc1OC (configuration not stated)
Reply: -8

Ask: State the recorded Log IC50 for this entry: COc1ccc(C2=NN(C(C)C)C(=O)C3CC=CCC23)cc1OC (configuration not stated)
Reply: -8.9

Ask: State the recorded Log IC50 for this entry: COc1ccc(C2=NN(C3C4CC5CC(C4)CC3C5)C(=O)C3CC=CCC23)cc1OC (configuration not stated)
Reply: -9.4

Ask: State the recorded Log IC50 for this entry: COc1ccc(C2=NN(CCc3ccccc3)C(=O)C3CCCCC23)cc1OC (configuration not stated)
Reply: -7.6
